Assay: Solution stability test (residual ratio and generation of active form in buffers of pH 2.0 to 9.0)
Assay type: physicochemical
Details: pH5.0 buffer, 25° C., 25 umol/L, 0 hr
Protocol: The test compounds were incubated at 25° C. at a concentration of 25 umol/L in a buffer prepared to have a pH of 2.0, 3.0, 5.0, 7.4, and 9.0. The compounds were measured by HPLC after 0, 3, 6, 9, 12, and 24 hours. […] The yield of the Example and Reference Example compounds and active forms is calculated with each of the peak area of the Example and Reference Example compounds at 0 minutes and the peak area upon dissolution of the corresponding active form at 100 umol/L as 100%. […]
Where a name gives a salt, the structure may show the parent alone.
Quick reference: Residual ratio of the listed items.
The reply should be a number in %, with the unit left off.

Determine from records and report Residual ratio for NCCCNC(=O)Oc1c(OC(=O)NCCCN)c(-c2ccccc2)c2c(c1-c1ccccc1)OCO2 100

Determine from records and report Residual ratio for CN1CC[C@H](c2c(OC(=O)N(C)CCN)cc(O)c3c(=O)cc(-c4ccccc4Cl)oc23)[C@H](O)C1 100

Determine from records and report Residual ratio for C[C@H]1COc2c1c(OC(=O)NCCNCC(=O)O)c(OC(=O)NCCNCC(=O)O)c1c3c(ccc21)C(C)(C)CCC3 [Example 12, dihydrochloride] 100

Determine from records and report Residual ratio for Cc1cc(OC(=O)NCCNCC(=O)O)c2ccccc2c1OC(=O)NCCNCC(=O)O [Example 2, dihydrochloride] 101

Determine from records and report Residual ratio for CC(=O)c1cc2c(O)c3c(O)cccc3c(OC(=O)NCCCN)c2o1 [Reference Example 9, hydrochloride] 102

Determine from records and report Residual ratio for CC(=O)c1cc2c(OC(=O)NCCNCC(=O)O)c3ccsc3c(OC(=O)NCCNCC(=O)O)c2o1 [Example 1, dihydrochloride] 85.1

Determine from records and report Residual ratio for C[C@H]1COc2c1c(OC(=O)NCCCNCC(=O)O)c(OC(=O)NCCCNCC(=O)O)c1c3c(ccc21)C(C)(C)CCC3 [Example 13, dihydrochloride] 100
